Test system: EB2 (Burkitt's Lymphoma)
Assay: Bliss excess, mean over the matrix (fraction); higher = more synergy
Please respond with reported Bliss excess for every item in the list.
Just the number, please, no unit after it.

According to the records, this compound NC1(C(=O)N[C@@H](CCO)c2ccc(Cl)cc2)CCN(c2ncnc3[nH]ccc23)CC1 [Capivasertib] + COc1nnc2ccc(N3CCC(c4ccc(OCCN5CCN(C)C(=O)[C@H]5C)cc4)CC3)nn12 [AZD5153] (first compound max 10 µM, 7x7, partner max 1 µM) displays Bliss excess of -0.0966

According to the records, this compound CCN(CCO)CCCOc1ccc2c(Nc3cc(CC(=O)Nc4cccc(F)c4)[nH]n3)ncnc2c1 [AZD2811] + C=CCn1c(=O)c2cnc(Nc3ccc(N4CCN(C)CC4)cc3)nc2n1-c1cccc(C(C)(C)O)n1 [AZD1775] (first compound max 1 µM, partner max 1 µM) displays Bliss excess of -0.0165

According to the records, this compound CN(CCO)CC[C@H](CSc1ccccc1)Nc1ccc(S(=O)(=O)NC(=O)c2ccc(N3CCC([C@@H](O)c4ccccc4-c4ccc(Cl)cc4)CC3)cc2)cc1S(=O)(=O)C(F)(F)F [AZD4320] + Nc1ccn([C@@H]2O[C@H](CO)[C@@H](O)C2(F)F)c(=O)n1 [Gemcitabine] (first compound max 1 µM, 7x7, partner max 0.3 µM) displays Bliss excess of -0.0017

According to the records, this compound C[C@@H](Oc1cc(-c2cnn(C3CCNCC3)c2)cnc1N)c1c(Cl)ccc(F)c1Cl [Crizotinib] + CC1=C(C(=CC=C1)Cl)NC(=O)C2=CN=C(S2)NC3=CC(=NC(=N3)C)N4CCN(CC4)CCO [Dasatinib] (first compound max 10 µM, 7x7, partner max 2 µM) displays Bliss excess of 0.0112

* * *

System: JHU-022 (Oral Cavity Carcinoma)
Experiment: combination Emax (second highest fraction inhibited in the dose matrix, 72 h); higher = more inhibition; extreme values may be limits of the assay
Label rule, in plain words: combination Emax of 0.5 and up is Condition met, under 0.5 is Condition not met.

Has C[C@@H](c1ccc2nccn2c1)n1nnc2ncc(-c3cnn(C)c3)nc21 [Savolitinib] + CC1(C)CCC(CN2CCN(c3ccc(C(=O)NS(=O)(=O)c4ccc(NCC5CCOCC5)c([N+](=O)[O-])c4)c(Oc4cnc5[nH]ccc5c4)c3)CC2)=C(c2ccc(Cl)cc2)C1 [Venetoclax] (first compound max 1 µM, 7x7, partner max 1 µM) a recorded combination Emax greater than or equal to 0.5?
Condition not met

Has CC1(C)CCC(CN2CCN(c3ccc(C(=O)NS(=O)(=O)c4ccc(NCC5CCOCC5)c([N+](=O)[O-])c4)c(Oc4cnc5[nH]ccc5c4)c3)CC2)=C(c2ccc(Cl)cc2)C1 [Venetoclax] + CCN(CCO)CCCOc1ccc2c(Nc3cc(CC(=O)Nc4cccc(F)c4)[nH]n3)ncnc2c1 [AZD2811] (first compound max 1 µM, 7x7, partner max 1 µM) a recorded combination Emax greater than or equal to 0.5?
Condition not met

Has Cc1c2c(nn1C)CSCc1cc(n(C)n1)CSc1cc(c3ccccc3c1)OCCCc1c(C(=O)O)n(C)c3c-2c(Cl)ccc13 [AZD5991] + CC1(C)CCC(CN2CCN(c3ccc(C(=O)NS(=O)(=O)c4ccc(NCC5CCOCC5)c([N+](=O)[O-])c4)c(Oc4cnc5[nH]ccc5c4)c3)CC2)=C(c2ccc(Cl)cc2)C1 [Venetoclax] (first compound max 1 µM, 7x7, partner max 1 µM) a recorded combination Emax greater than or equal to 0.5?
Condition not met

Has CC1(C)CCC(CN2CCN(c3ccc(C(=O)NS(=O)(=O)c4ccc(NCC5CCOCC5)c([N+](=O)[O-])c4)c(Oc4cnc5[nH]ccc5c4)c3)CC2)=C(c2ccc(Cl)cc2)C1 [Venetoclax] + CN(C)CCCOc1ccc(-c2ccc3ncc4c(c3c2)n(C2CCOCC2)c(=O)n4C)cn1 [AZD0156] (first compound max 1 µM, 7x7, partner max 1 µM) a recorded combination Emax greater than or equal to 0.5?
Condition not met

Has CN(CCO)CC[C@H](CSc1ccccc1)Nc1ccc(S(=O)(=O)NC(=O)c2ccc(N3CCC([C@@H](O)c4ccccc4-c4ccc(Cl)cc4)CC3)cc2)cc1S(=O)(=O)C(F)(F)F [AZD4320] + Cn1cnc2c(F)c(Nc3ccc(Br)cc3Cl)c(C(=O)NOCCO)cc21 [Selumetinib] (first compound max 1 µM, 7x7, partner max 3 µM) a recorded combination Emax greater than or equal to 0.5?
Condition met

Has COc1nnc2ccc(N3CCC(c4ccc(OCCN5CCN(C)C(=O)[C@H]5C)cc4)CC3)nn12 [AZD5153] + C=CCn1c(=O)c2cnc(Nc3ccc(N4CCN(C)CC4)cc3)nc2n1-c1cccc(C(C)(C)O)n1 [AZD1775] (first compound max 1 µM, partner max 1 µM) a recorded combination Emax greater than or equal to 0.5?
Condition not met

Has O=C(c1cc(Cc2n[nH]c(=O)c3ccccc23)ccc1F)N1CCN(C(=O)C2CC2)CC1 [Olaparib] + CC1(C)CCC(CN2CCN(c3ccc(C(=O)NS(=O)(=O)c4ccc(NCC5CCOCC5)c([N+](=O)[O-])c4)c(Oc4cnc5[nH]ccc5c4)c3)CC2)=C(c2ccc(Cl)cc2)C1 [Venetoclax] (first compound max 10 µM, 7x7, partner max 1 µM) a recorded combination Emax greater than or equal to 0.5?
Condition not met

Has CS(=O)(=O)CCNCc1ccc(-c2ccc3ncnc(Nc4ccc(OCc5cccc(F)c5)c(Cl)c4)c3c2)o1 [Lapatinib] + Cn1cnc2c(F)c(Nc3ccc(Br)cc3Cl)c(C(=O)NOCCO)cc21 [Selumetinib] (first compound max 10 µM, 7x7, partner max 10 µM) a recorded combination Emax greater than or equal to 0.5?
Condition met

Has Cc1cc2ncnn2cc1Nc1ncc2c(n1)n(C1CCOCC1)c(=O)n2C [AZD7648] + CCN(CCO)CCCOc1ccc2c(Nc3cc(CC(=O)Nc4cccc(F)c4)[nH]n3)ncnc2c1 [AZD2811] (first compound max 10 µM, 7x7, partner max 1 µM) a recorded combination Emax greater than or equal to 0.5?
Condition not met

Has N#Cc1cnc(Nc2cc(NC[C@H]3CNCCO3)c(C(F)(F)F)cn2)cn1 [SRA737] + C=CCn1c(=O)c2cnc(Nc3ccc(N4CCN(C)CC4)cc3)nc2n1-c1cccc(C(C)(C)O)n1 [AZD1775] (first compound max 10 µM, partner max 1 µM) a recorded combination Emax greater than or equal to 0.5?
Condition met

Has CS(=O)(=O)CCNCc1ccc(-c2ccc3ncnc(Nc4ccc(OCc5cccc(F)c5)c(Cl)c4)c3c2)o1 [Lapatinib] + NC1(c2ccc(-c3nc4ccn5c(=O)[nH]nc5c4cc3-c3ccccc3)cc2)CCC1 [MK-2206] (first compound max 10 µM, 7x7, partner max 10 µM) a recorded combination Emax greater than or equal to 0.5?
Condition met

Has N#Cc1cnc(Nc2cc(NC[C@H]3CNCCO3)c(C(F)(F)F)cn2)cn1 [SRA737] + CCc1c2c(nc3ccc(O)cc13)-c1cc3c(c(=O)n1C2)COC(=O)[C@]3(O)CC [SN-38] (first compound max 10 µM, 7x7, partner max 0.3 µM) a recorded combination Emax greater than or equal to 0.5?
Condition met

Has CN(CCO)CC[C@H](CSc1ccccc1)Nc1ccc(S(=O)(=O)NC(=O)c2ccc(N3CCC([C@@H](O)c4ccccc4-c4ccc(Cl)cc4)CC3)cc2)cc1S(=O)(=O)C(F)(F)F [AZD4320] + Cc1cc2ncnn2cc1Nc1ncc2c(n1)n(C1CCOCC1)c(=O)n2C [AZD7648] (first compound max 1 µM, 7x7, partner max 10 µM) a recorded combination Emax greater than or equal to 0.5?
Condition not met

* * *

Please respond with reported combination Emax for every item in the list.
Tested on: HCC70 (Breast Carcinoma)
Experiment: combination Emax (second highest fraction inhibited in the dose matrix, 72 h); higher = more inhibition; extreme values may be limits of the assay

According to the records, this compound CC1(C)CCC(CN2CCN(c3ccc(C(=O)NS(=O)(=O)c4ccc(NCC5CCOCC5)c([N+](=O)[O-])c4)c(Oc4cnc5[nH]ccc5c4)c3)CC2)=C(c2ccc(Cl)cc2)C1 [Venetoclax] + Cn1cnc2c(F)c(Nc3ccc(Br)cc3Cl)c(C(=O)NOCCO)cc21 [Selumetinib] (first compound max 1 µM, 7x7, partner max 3 µM) displays combination Emax of 0.591

According to the records, this compound C[C@@H]1COCCN1c1cc(C2([S@](C)(=N)=O)CC2)nc(-c2ccnc3[nH]ccc23)n1 [AZD6738] + Nc1ccn([C@@H]2O[C@H](CO)[C@@H](O)C2(F)F)c(=O)n1 [Gemcitabine] (first compound max 10 µM, 7x7, partner max 0.3 µM) displays combination Emax of 0.826

* * *

Tested on: 5637 (Bladder Carcinoma)
Assay: Bliss excess, mean over the matrix (fraction); higher = more synergy
Please respond with reported Bliss excess for every item in the list.
Just the number, please, no unit after it.

According to the records, this compound CC(=O)c1c(C)c2cnc(Nc3ccc(N4CCNCC4)cn3)nc2n(C2CCCC2)c1=O [Palbociclib] + CC1(C)CCC(CN2CCN(c3ccc(C(=O)NS(=O)(=O)c4ccc(NCC5CCOCC5)c([N+](=O)[O-])c4)c(Oc4cnc5[nH]ccc5c4)c3)CC2)=C(c2ccc(Cl)cc2)C1 [Venetoclax] (first compound max 10 µM, 7x7, partner max 1 µM) displays Bliss excess of -0.0149

According to the records, this compound Cn1cnc2c(F)c(Nc3ccc(Br)cc3Cl)c(C(=O)NOCCO)cc21 [Selumetinib] + C[C@@H]1COCCN1C2=NC(=NC(=C2)C3(CC3)[S@](=N)(=O)C)C4=C5C=CNC5=NC=C4 [AZD6738] (first compound max 10 µM, 7x7, partner max 10 µM) displays Bliss excess of 0.0382

According to the records, this compound CN(C)CCCOc1ccc(-c2ccc3ncc4c(c3c2)n(C2CCOCC2)c(=O)n4C)cn1 [AZD0156] + C[C@@H]1COCCN1C2=NC(=NC(=C2)C3(CC3)[S@](=N)(=O)C)C4=C5C=CNC5=NC=C4 [AZD6738] (first compound max 1 µM, 7x7, partner max 10 µM) displays Bliss excess of -0.0155

According to the records, this compound COc1nnc2ccc(N3CCC(c4ccc(OCCN5CCN(C)C(=O)[C@H]5C)cc4)CC3)nn12 [AZD5153] + CN(CC[C@H](CSC1=CC=CC=C1)NC2=C(C=C(C=C2)S(=O)(=O)NC(=O)C3=CC=C(C=C3)N4CCC(CC4)[C@H](C5=CC=CC=C5C6=CC=C(C=C6)Cl)O)S(=O)(=O)C(F)(F)F)CCO [AZD4320] (first compound max 1 µM, 7x7, partner max 1 µM) displays Bliss excess of 0.122
